Sourced from ChEMBL document CHEMBL3991601

biological target: Protein kinase C beta type (Homo sapiens); also: in the data inactive means no Kd found up to 30 µM
Sequence (P05771 whole entry): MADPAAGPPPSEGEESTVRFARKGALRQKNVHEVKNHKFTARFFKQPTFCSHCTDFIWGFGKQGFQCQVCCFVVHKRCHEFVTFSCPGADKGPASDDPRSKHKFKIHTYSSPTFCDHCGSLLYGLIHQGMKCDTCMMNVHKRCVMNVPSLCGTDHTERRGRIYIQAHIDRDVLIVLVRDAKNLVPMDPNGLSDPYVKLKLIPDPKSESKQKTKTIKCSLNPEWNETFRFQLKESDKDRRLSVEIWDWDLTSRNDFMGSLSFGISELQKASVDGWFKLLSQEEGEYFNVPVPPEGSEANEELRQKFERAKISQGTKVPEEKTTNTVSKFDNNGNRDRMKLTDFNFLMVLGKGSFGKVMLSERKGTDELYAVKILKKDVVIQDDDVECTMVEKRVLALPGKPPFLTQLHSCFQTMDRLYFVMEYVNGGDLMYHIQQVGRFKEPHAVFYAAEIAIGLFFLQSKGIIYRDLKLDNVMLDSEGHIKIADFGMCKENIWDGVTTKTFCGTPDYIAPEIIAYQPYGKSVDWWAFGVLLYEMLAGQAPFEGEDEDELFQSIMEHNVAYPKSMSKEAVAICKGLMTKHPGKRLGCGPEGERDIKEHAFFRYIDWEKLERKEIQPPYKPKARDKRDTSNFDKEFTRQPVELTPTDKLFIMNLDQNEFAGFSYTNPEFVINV
The source made the active and inactive calls.
Just give me one of these, please: active, inactive

[
  {
    "MOLECULE": "CNC(=O)c1cccc2cc(Oc3ccnc4cc(OCC5(N)CC5)c(OC)cc34)ccc12",
    "SYSTEM TESTED": "Protein kinase C beta type (Homo sapiens)",
    "LABEL": "inactive"
  }
]

Q: Which outcome was assigned to `CCn1cc(-c2ccnc3[nH]c(-c4cccc(CN(C)C)c4)cc23)c(-c2ccc(NC(=O)N(C)C)cc2)n1` in this test?
A: inactive

Q: Which outcome was assigned to `NC1(c2ccc(-c3nc4ccn5c(=O)[nH]nc5c4cc3-c3ccccc3)cc2)CCC1` in this test?
A: inactive

Q: Which outcome was assigned to `Cc1nc(Nc2n[nH]c3c2CN(C(=O)N[C@H](CN(C)C)c2ccccc2)C3(C)C)c2sccc2n1` in this test?
A: active

Q: Which outcome was assigned to `CN1CCN(CCOc2cc(OC3CCOCC3)c3c(Nc4c(Cl)ccc5c4OCO5)ncnc3c2)CC1` in this test?
A: inactive

Q: Which outcome was assigned to `O=C(NOCCO)c1cc(CN2OCCCC2=O)c(F)c(F)c1Nc1ccc(I)cc1F` in this test?
A: inactive

Q: Which outcome was assigned to `Cc1cc(Nc2ncnc3ccc(NC4=NC(C)(C)CO4)cc23)ccc1Oc1ccn2ncnc2c1` in this test?
A: inactive

Q: Which outcome was assigned to `CN(C[C@@H]1COCCO1)S(=O)(=O)Nc1ccc2ccc3ncc(-c4cnn(C)c4)cc3c(=O)c2c1` in this test?
A: inactive

Q: Which outcome was assigned to `Cn1cnc2c(F)c(Nc3ccc(Br)cc3F)c(C(=O)NOCCO)cc21` in this test?
A: inactive

Q: Which outcome was assigned to `CC(=O)c1cnc2ccc(-c3cc(Cl)c(O)c(Cl)c3)nc2c1N[C@H]1CC[C@H](CN(C)C)CC1` in this test?
A: active

Q: Which outcome was assigned to `C[C@@H](Oc1cc(-n2cnc3ccc(CN4CCN(C)CC4)cc32)sc1C(N)=O)c1ccccc1C(F)(F)F` in this test?
A: inactive

Q: Which outcome was assigned to `CN1C/C=C/CCOc2cccc(c2)-c2ccnc(n2)Nc2cccc(c2)C1` in this test?
A: active

Q: Which outcome was assigned to O=C1NC(=O)[C@@H](c2cn3c4c(cccc24)CCC3)[C@@H]1c1c[nH]c2ccccc12 [TIVANTINIB] in this test?
A: inactive

Q: Which outcome was assigned to `CC(C)c1cc(CNc2nc(Nc3cc(C4CC4)[nH]n3)cc(N3CCN(C)CC3)n2)on1` in this test?
A: inactive

Q: Which outcome was assigned to `C=CC(=O)N1CCC[C@H](n2c(=O)n(-c3ccc(Oc4ccccc4)cc3)c3c(N)ncnc32)C1` in this test?
A: inactive

* * *

biological target: MAP kinase-activated protein kinase 2 (Homo sapiens); also: in the data inactive means no Kd found up to 30 µM
Sequence (P49137 whole entry): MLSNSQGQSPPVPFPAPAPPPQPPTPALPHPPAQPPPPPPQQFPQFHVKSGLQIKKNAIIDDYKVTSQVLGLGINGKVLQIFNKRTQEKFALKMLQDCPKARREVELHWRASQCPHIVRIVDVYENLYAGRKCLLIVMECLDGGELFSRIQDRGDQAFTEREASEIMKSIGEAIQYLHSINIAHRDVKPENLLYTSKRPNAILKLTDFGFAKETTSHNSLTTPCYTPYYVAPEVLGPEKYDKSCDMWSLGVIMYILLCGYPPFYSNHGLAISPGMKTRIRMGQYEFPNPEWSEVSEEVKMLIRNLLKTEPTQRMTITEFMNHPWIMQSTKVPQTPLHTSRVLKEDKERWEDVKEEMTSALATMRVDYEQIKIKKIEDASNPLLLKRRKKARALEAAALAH
The source made the active and inactive calls.
Just give me one of these, please: active, inactive

Consider the worked cases shown below.
[
  {
    "COMPOUND": "NC1(c2ccc(-c3nc4ccn5c(=O)[nH]nc5c4cc3-c3ccccc3)cc2)CCC1",
    "LABEL": "inactive"
  },
  {
    "COMPOUND": "C=CC(=O)Nc1cc2c(Nc3ccc(F)c(Cl)c3)ncnc2cc1C#CC(C)(C)N1CCN(C)CC1 [AV-412 FREE BASE]",
    "LABEL": "inactive"
  },
  {
    "COMPOUND": "CCOc1cc2ncc(C#N)c(Nc3ccc(F)c(Cl)c3)c2cc1NC(=O)/C=C/CN(C)C",
    "LABEL": "inactive"
  }
]

Q: Which outcome was assigned to `Nc1ncnc2c1c(-c1cccc(OCc3ccccc3)c1)cn2[C@H]1C[C@@H](CN2CCC2)C1` in this test?
A: inactive

Q: Which outcome was assigned to `C[C@H]1CNCCCN1S(=O)(=O)c1cccc2cncc(F)c12` in this test?
A: inactive
